Please provide measured log10 of IC50 for the entries that follow.
- Test system: HUVEC
- METHOD_NOTES: HUVEC proliferation assay ([3H]thymidine incorporation)
- Assay type: cell-based, human
- PROTOCOL_CONDITIONS: Homo sapiens; HUVEC, 3H thymidine incorporation; in μM; read-out: Proliferation IC50
The figures below represent log10 of IC50, where IC50 is stated in µM.

// worked examples, log10 of IC50 included
COMPOUND	OBSERVED_MEASUREMENT
CCC(C)n1ncn(-c2ccc(N3CCN(c4ccc(OC[C@@H]5CO[C@@](Cn6ccnc6C(C)C)(c6ccc(Cl)cc6Cl)O5)cc4)CC3)cc2)c1=O (stereo partly drawn)	-1.17
CCC(C)n1ncn(-c2ccc(N3CCN(c4ccc(OC[C@@H]5CO[C@@](Cn6ccnc6C)(c6ccc(Cl)cc6Cl)O5)cc4)CC3)cc2)c1=O (stereo partly drawn)	-0.76
CCc1nccn1C[C@@]1(c2ccc(Cl)cc2Cl)OC[C@@H](COc2ccc(N3CCN(c4ccc(-n5cnn(C(C)CC)c5=O)cc4)CC3)cc2)O1 (stereo partly drawn)	-0.65
CCC(C)n1ncn(-c2ccc(N3CCN(c4ccc(OC[C@@H]5CO[C@@](CN(C)C)(c6ccc(Cl)cc6Cl)O5)cc4)CC3)cc2)c1=O (stereo partly drawn)	0.15
CCC(C)n1ncn(-c2ccc(N3CCN(c4ccc(OC[C@@H]5CO[C@@](Cn6cnc(C(F)(F)F)n6)(c6ccc(Cl)cc6Cl)O5)cc4)CC3)cc2)c1=O (stereo partly drawn)	-0.57

List the reported log10 of IC50 of each compound below.
1. CCC(C)n1ncn(-c2ccc(N3CCN(c4ccc(OC[C@@H]5CO[C@@](Cn6nnnc6-c6ccccc6)(c6ccc(Cl)cc6Cl)O5)cc4)CC3)cc2)c1=O (stereo partly drawn)
2. CCC(C)n1ncn(-c2ccc(N3CCN(c4ccc(OC[C@@H]5CO[C@@](CC)(c6ccc(Cl)cc6Cl)O5)cc4)CC3)cc2)c1=O (stereo partly drawn)
3. CCC(C)n1ncn(-c2ccc(N3CCN(c4ccc(OC[C@@H]5CO[C@@](Cn6c(C)cnc6C)(c6ccc(Cl)cc6Cl)O5)cc4)CC3)cc2)c1=O (stereo partly drawn)
4. CCC(C)n1ncn(-c2ccc(N3CCN(c4ccc(OC[C@@H]5CO[C@@](Cn6cc(C)nc6C)(c6ccc(Cl)cc6Cl)O5)cc4)CC3)cc2)c1=O (stereo partly drawn)
5. CCC(C)n1ncn(-c2ccc(N3CCN(c4ccc(OC[C@@H]5CO[C@@](Cn6cccn6)(c6ccc(Cl)cc6Cl)O5)cc4)CC3)cc2)c1=O (stereo partly drawn)
6. CCC(C)n1ncn(-c2ccc(N3CCN(c4ccc(OC[C@@H]5CO[C@@](Cn6ccnc6)(c6ccc(Cl)cc6Cl)O5)cc4)CC3)cc2)c1=O (stereo partly drawn)
7. CCC(C)n1ncn(-c2ccc(N3CCN(c4ccc(OC[C@@H]5CO[C@@](CBr)(c6ccc(Cl)cc6Cl)O5)cc4)CC3)cc2)c1=O (stereo partly drawn)

1. -0.92
2. -0.50
3. -0.31
4. -0.31
5. -0.51
6. -1.07
7. -0.29
